EXPERIMENT DESCRIPTION: Pharmacokinetic profiles
Format: in vivo
DETAILS: SD, rat, serum, iv, 1 mg/kg, SD rats, IV 1 mg/kg, 8 h; read-out: Con. (individual rats NO.1-3)
REPORTED METRIC: concentration at 8 h
Report the figure along with its unit, number first.

Identify measured concentration at 8 h corresponding to `CCN1CCN(C(=O)c2ccc(Nc3ncc(F)c(-c4ccc5nc(N(C)C)sc5c4)n3)nc2)CC1` 43 ng/mL

====

EXPERIMENT DESCRIPTION: Pharmacokinetic profiles
Assay type: in vivo
DETAILS: SD, rat, serum, po, 10 mg/kg, SD rats, PO 10 mg/kg, 24 h; read-out: Con. (individual rats NO.1-3)
REPORTED METRIC: concentration at 24 h (ng/mL)
Give bare numbers, in ng/mL.

Kindly indicate its recorded concentration at 24 h. Item: CCN1CCN(C(=O)c2ccc(Nc3ncc(F)c(-c4ccc5nc(N(C)C)sc5c4)n3)nc2)CC1 [YK-2-69] 67.9

====

EXPERIMENT DESCRIPTION: Pharmacokinetic profiles
Type: in vivo
DETAILS: rat, serum; SD rats, PO 10 mg/kg; read-out: MRT0-∞
REPORTED METRIC: MRT inf
Write the numeric value and follow it with the unit.

Report measured MRT inf; entry is CCN1CCN(C(=O)c2ccc(Nc3ncc(F)c(-c4ccc5nc(N(C)C)sc5c4)n3)nc2)CC1 [YK-2-69] 8.9 h

====

TARGET UNDER TEST: DYRK2 (Homo sapiens, UniProt Q92630)
Construct: purchased Reaction Biology Corporation (assay service)
Sequence (Q92630 whole entry): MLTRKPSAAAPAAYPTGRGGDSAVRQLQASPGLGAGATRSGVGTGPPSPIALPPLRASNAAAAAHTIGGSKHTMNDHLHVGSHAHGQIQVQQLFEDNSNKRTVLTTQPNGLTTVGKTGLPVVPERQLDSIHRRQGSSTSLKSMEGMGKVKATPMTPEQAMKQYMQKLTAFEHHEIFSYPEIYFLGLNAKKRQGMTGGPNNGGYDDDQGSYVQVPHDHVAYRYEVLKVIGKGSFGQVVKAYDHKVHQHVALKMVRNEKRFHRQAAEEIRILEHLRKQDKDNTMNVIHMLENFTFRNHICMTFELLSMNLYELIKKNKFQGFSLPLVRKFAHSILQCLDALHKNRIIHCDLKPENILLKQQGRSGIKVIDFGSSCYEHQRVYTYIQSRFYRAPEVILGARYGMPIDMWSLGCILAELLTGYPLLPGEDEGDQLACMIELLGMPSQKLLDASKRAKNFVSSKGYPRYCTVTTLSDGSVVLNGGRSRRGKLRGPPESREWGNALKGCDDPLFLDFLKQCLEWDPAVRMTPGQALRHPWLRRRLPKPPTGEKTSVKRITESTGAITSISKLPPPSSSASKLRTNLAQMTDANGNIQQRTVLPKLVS
EXPERIMENT DESCRIPTION: DYRKs kinase activity assay (33P-ATP, DYRKtide substrate): DYRK2
Type: biochemical
DETAILS: DYRK2 kinase; Conc. 0.0137174 µM; duplicate values; read-out: % Inhibition
Can you tell me inhibition at 0.0137174 µM for the items I'm about to list?
One number for each entry, in %.

Worked cases, inhibition at 0.0137174 µM given:
In [3]: df
Out[3]:
                                smiles_code  numeric_value
0  CCN1CCN(C(=O)c2cnc(Nc3ncc(F)c(-c4ccc5ncsc5c4)n3)nc2)CC1           3.91
1  Cc1nc2ccc(-c3nc(Nc4ccc(C(=O)N5CCNCC5)cn4)ncc3F)cc2s1.Cl           35.4
2  Cl.Fc1cnc(Nc2ccc(CN3CCNCC3)cn2)nc1-c1ccc2ncsc2c1           9.69

Read the entry `Cl.Fc1cnc(Nc2ccc(N3CCNCC3)cn2)nc1-c1ccc2ncsc2c1` and write its reported inhibition at 0.0137174 µM. 14

====

TARGET UNDER TEST: DYRK2 (Homo sapiens, UniProt Q92630)
Construct: purchased Reaction Biology Corporation (assay service)
EXPERIMENT DESCRIPTION: DYRKs kinase activity assay (33P-ATP, DYRKtide substrate): DYRK2
Assay type: biochemical
DETAILS: DYRK2 kinase; Conc. 1.11111 µM; duplicate values; read-out: % Inhibition
Provide the recorded inhibition at 1.11111 µM for the entries that follow.
Quick note: number first, unit second.

>>> df
                                smiles_code           reported_metric  result
0  CC(C)N1CCN(Cc2ccc(Nc3ncc(F)c(-c4ccc5ncsc5c4)n3)nc2)CC1  inhibition at 1.11111 µM   76.8%
1  Cl.Fc1cnc(Nc2ccc(CN3CCNCC3)cn2)nc1-c1ccc2ncsc2c1  inhibition at 1.11111 µM   75.1%
2  CCN1CCN(Cc2ccc(Nc3ncc(F)c(-c4cnc5ccnn5c4)n3)nc2)CC1  inhibition at 1.11111 µM   8.33%
3  CCN1CCN(Cc2ccc(Nc3ncc(F)c(-c4ccc5ncsc5c4)n3)nc2)CC1  inhibition at 1.11111 µM   68.6%
4  CCN1CCN(C(=O)c2ccc(Nc3ncc(F)c(-c4ccc5nc(C)sc5c4)n3)nc2)CC1  inhibition at 1.11111 µM   92.2%

For each of the compounds below, state inhibition at 1.11111 µM.
1. CC(C)(C)OC(=O)N1CCN(Cc2ccc(Nc3ncc(F)c(-c4ccc5ncsc5c4)n3)nc2)CC1
2. CCN1CCN(C(=O)c2cnc(Nc3ncc(F)c(-c4ccc5ncsc5c4)n3)nc2)CC1
3. Cc1nc2ccc(-c3nc(Nc4ccc(C(=O)N5CCNCC5)cn4)ncc3F)cc2s1.Cl
4. Cl.Fc1cnc(Nc2ccc(N3CCNCC3)cn2)nc1-c1ccc2ncsc2c1

["47%", "58.5%", "92%", "86.9%"]
